- Tested on: NOMO1
- test: AUC of viability dose-response curve (% viability x log10 dose units); higher = less sensitive
- experimental context: RPMI 5 mM glucose + 10% dialyzed FBS; 48 h
Please provide measured AUC of viability dose-response curve for the entries that follow.
One number for each entry.

Quick batch: AUC of viability dose-response curve for everything below.
1. Nc1ncnc2c1c(-c1cccc(OCc3ccccc3)c1)cn2C1CC(CN2CCCC2)C1 (centres undefined)
2. C[C@](N)(Cc1ccc(O)c(O)c1)C(=O)O

Output:
423
405

Quick batch: AUC of viability dose-response curve for everything below.
1. CN1CCN(CCCN2c3ccccc3Sc3ccc(C(F)(F)F)cc32)CC1
2. C[C@H]1O[C@H]([C@H](O)[C@@H]1O)N2\C=C(F)/C(=O)NC2=O
3. C[C@H]1COC/2=C1/C(=O)C(=O)C3=C4CCCC(C)(C)C4=CC=C23
4. CC(C)[C@H](N)C(=O)OCCOC[N]1C=NC2=C1\N=C(N)/NC2=O
5. CCOC1=CC=CC=C1N\2C(=O)C3=C(C=CC=C3)\N=C2C(C)N4CCN(CC4)C(=O)COC5=CC=C(Cl)C=C5 (centres undefined)

Output:
[384, 444, 448, 474, 357]

Quick batch: AUC of viability dose-response curve for everything below.
1. CNC(=O)[C@H](CC/1=C/N=C\2/C=C\C\C=C12)NC(=O)[C@H](CC(C)C)CC(=O)NO
2. CN1CCN(C(=O)O[C@H]2c3nccnc3C(=O)N2c2ccc(Cl)cn2)CC1

Output:
[418, 464]

* * *

Please provide measured AUC of viability dose-response curve for the entries that follow.
- System: NOMO1
- test: AUC of viability dose-response curve (% viability x log10 dose units); higher = less sensitive
- experimental context: RPMI 5 mM glucose + 10% dialyzed FBS; 48 h
One number for each entry.

Check out these entries, answers already filled in.
CC(=O)[C@]1(O)Cc2c(O)c3c(c(O)c2[C@@H](O[C@H]2C[C@H](N)[C@H](O)[C@H](C)O2)C1)C(=O)c1ccccc1C3=O    374
CCCC1OC2C[C@H]3[C@@H]4CCC5=CC(=O)C=C[C@]5(C)[C@H]4C(O)C[C@]3(C)[C@]2(C(=O)CO)O1 (stereo partly drawn)    458
CCOC(=O)/C=C/[C@H](C[C@@H]1CCNC1=O)NC(=O)[C@@H](CC(=O)[C@@H](NC(=O)c1cc(C)on1)C(C)C)Cc1ccc(F)cc1    440
CC(C)OC1=CC=C2C(=C1)O\C=C(/C2=O)C3=CC=CC=C3    471
NC(=O)c1ncn([C@@H]2O[C@H](CO)[C@@H](O)[C@H]2O)c1O    460

Quick batch: AUC of viability dose-response curve for everything below.
1. Cc1c(C)c2c(c(C)c1O)CCC(C)(COc1ccc(CC3SC(=O)NC3=O)cc1)O2 (stereo not drawn)
2. COc1ccc2c(c1OC)C(=O)O[C@H]2[C@H]1c2c(cc3c(c2OC)OCO3)CCN1C
3. O=C(/C=C/c1ccc(O)cc1)c1ccc(O)cc1O

Output:
1: 454; 2: 277; 3: 452

* * *

Please provide measured cell viability for the entries that follow.
- System: SEM cells
- test: cell viability relative to DMSO control; higher = less cytotoxic
- experimental context: RPMI 5 mM glucose + 10% dialyzed FBS; 48 h; 0.0632 µM
One number for each entry, in %.

CCOC(=O)/C=C/[C@H](C[C@@H]1CCNC1=O)NC(=O)[C@@H](CC(=O)[C@@H](NC(=O)c1cc(C)on1)C(C)C)Cc1ccc(F)cc1    136
CC(C)Cc1ccc(C(C)C(=O)O)cc1 (centres undefined)    87.5
CN(C)CCN1C(=O)c2cccc3cc(N)cc(c23)C1=O    112
CC(C)[C@H](N)C(=O)OCCOC[N]1C=NC2=C1\N=C(N)/NC2=O    122
C[C@@]1(C(=O)Nc2ccc(F)nc2)CCCN1c1nc(Nc2cc(C3CC3)[nH]n2)c2cccn2n1    112
C=CCc1ccc(O)c(-c2ccc(O)c(CC=C)c2)c1    109
OC(CN1CCN(c2cccc(Cl)c2)CC1)C(c1ccccc1)c1ccccc1 (centres undefined)    105
CCCC1OC2C[C@H]3[C@@H]4CCC5=CC(=O)C=C[C@]5(C)[C@H]4C(O)C[C@]3(C)[C@]2(C(=O)CO)O1 (some centres undefined)    68.8

Let us examine a further case.
Task: Record request: cell viability value, item CCN1CCCC1CNC(=O)c1cc([S+](N)(=O)[O-])ccc1OC (centres undefined)
Output: 118
